Numbers sourced from ChEMBL document CHEMBL1671816.

- TEST NAME: Cytotoxicity against human HepG2(2.2.15) cells after 9 days
- Assay type: cell-based
- CONDITION DETAILS: read-out: TC50
Recorded CC50 at 216 h for the following molecules
PROPERTY LABEL: CC50 at 216 h (µM)

* CCOC1CC(=O)N2C[C@@H]3CCCN4CCC[C@@H]([C@H]34)[C@H]2C1 (some centres undefined) | 481
* CCOC(=O)OC1C[C@@H]2[C@H]3CCCN4CCC[C@@H](CN2C(=O)C1O)[C@@H]34 (some centres undefined) | 1000
* O=C1CC(OCc2ccccc2)C[C@@H]2[C@H]3CCCN4CCC[C@@H](CN12)[C@@H]34 (some centres undefined) | 136
* Cl.O=C(OC1C[C@@H]2[C@H]3CCCN4CCC[C@@H](CN2C(=O)C1O)[C@@H]34)c1ccccc1 (some centres undefined) | 136
* Cl.O=C(CCl)OC1C[C@@H]2[C@H]3CCCN4CCC[C@@H](CN2C(=O)C1O)[C@@H]34 (some centres undefined) | 1100
* COC1CC(=O)N2C[C@@H]3CCCN4CCC[C@@H]([C@H]34)[C@H]2C1 (some centres undefined) | 1110
* O=C1C(OCc2ccccc2)C(OCc2ccccc2)C[C@@H]2[C@H]3CCCN4CCC[C@@H](CN12)[C@@H]34 (some centres undefined) | 37
* O=C(OC1CC(=O)N2C[C@@H]3CCCN4CCC[C@@H]([C@H]34)[C@H]2C1)c1ccccc1 (some centres undefined) | 236
